Values were extracted from the supplement of paper PMC9170038.

system: MS2 coat protein; test: apparent KD of MS2 coat protein; designed switch direction (-1 OFF switch, 1 ON switch): 1; higher = weaker reporter binding; details: input ligand: none
READOUT KIND: apparent KD of MS2 coat protein
Phrase the answer as number then unit, nothing more needed.

Please review the following examples before continuing.
| QUERY SEQUENCE | apparent KD of MS2 coat protein |
| --- | --- |
| GUUGAGAAAUAAGGAUAUGCAUGGAAGACACAUGAGGAUCACCCAUGUGGGAGGGAAACCAGGAGGUAGAAGGUAUUGGGAAAC [AK SSNG2-V2-23.1] (Eterna round: R96, puzzle: Same State NG 2) | 49.1 nM |
| ACAUGAGGAUCACCCAUGUGAAAAGACCUAGAGGUGAAGCCGCAGGAUAUAUCACAAACGAGAAGAUAGAAGGGCGUACGCAUG [Eternabot solution 9] (Eterna round: R96, puzzle: Same State NG 3) | 72.1 nM |
| GUUACAUGAGGAUCACCCAUGUAUGUGUGGGAGUAAGUGUCUUAGGAUAUCUAUUAUUUAAUUGAAGAGAAGGAAGAUUGUUGU [JMF's solution 26] (Eterna round: R96, puzzle: Same State NG 3) | 112 nM |

Entry UUGCUCGUGUGAGGAUAUGCCGCCGUUUCGGCUGCAGAAGGUACUGUAAUACAUGAGGAUCACCCAUGUCUCUGUUGUUUCGUG [salish99_SSNG1_r04_934] (Eterna round: R96, puzzle: Same State NG 1) ; apparent KD of MS2 coat protein = 19.3 nM

Entry UGUUGUUAAUUAGGAUAUGGGCACAUGAGGAUCACCCAUGUAUUGUCGAUGCUAUGUGGACACGUCUAGAAGGAAUGGCUAACA [SameState NG2 #90] (Eterna round: R96, puzzle: Same State NG 2) ; apparent KD of MS2 coat protein = 112 nM

---

Catalogue of sequences with associated apparent KD of MS2 coat protein
system: MS2 coat protein; experiment: apparent KD of MS2 coat protein; designed switch direction (-1 OFF switch, 1 ON switch): 1; higher = weaker reporter binding; conditions: Eterna round: R95; input ligand: microRNA oligo, concentration not stated
Note: unit nM is implicit; provide only the numeric part.

Please review the following examples before continuing.
| QUERY SEQUENCE | READING UNIT | READOUT VALUE |
| --- | --- | --- |
| UAGACAAGCUUUAUGUUCUUCCUUUUCCUACAUGAGGAUCACCCAUGUAGUCUGUCGAUUGAGAGAGUAGUUGAGAA [JR_SHM208A_Sub024] (puzzle: Sensor for hsa-mir-208a) | nM | 16.5 |
| ACGCAGCUGGGUGAGGAUAUCGGUGGUAAAACAUGAGGAUCACCCAUGUCCGAAGCUCGGACUUCCGAGAAGGCGCCCGGCCGCA [Atbeatve] (puzzle: Same State 2) | nM | 65.2 |
| CGUCCAGCCUGAGCUGGACAAAAGCAUGUACAUGAGGAUCACCCAUGUUCAUGUACAAGCUUUUUGCUCGUCUUACA [salish99_208a_r3_091x] (puzzle: Sensor for hsa-mir-208a) | nM | 16.2 |

Entry GGUCCAGCCUGAGCUGGACAAGAGCAUGUACAUGAGGAUCACCCAUGUCAUGUACAAGCUUUUUGCUCGUCUUAAAA [JL mod - D87 - 2] (puzzle: Sensor for hsa-mir-208a) ; apparent KD of MS2 coat protein = 14.5

Entry GCUCAUAGUAUAUGGGUACAAGCUUUUUGACAUGAGGAUCACCCAUGUACUCGUCUUAUGUGCAGUCCGUAGACUGC [JL-shm-2.21 Brourd mod] (puzzle: Sensor for hsa-mir-208a) ; apparent KD of MS2 coat protein = 17.3

---

system: MS2 coat protein; experiment: apparent KD of MS2 coat protein; higher = weaker reporter binding; conditions: Eterna round: R107; input ligand: arginine 13.2 mM
Binary call on apparent KD of MS2 coat protein: label 1 from 30 nM upward, label 0 beneath that.

Dear colleague, could you confirm whether ACACAUGAGGAUCACCCAUGUAAAGUUGAAGGAGCGAUCAUUAGGUCAGGUAGGUCGCAGCACAUGAGGAUCACCCAUGUCGUGA [DOUBLE!!! :-D #2] has apparent KD of MS2 coat protein at or above 30 nM? label 1

Dear colleague, could you confirm whether CUGACGUAGGAAGAUAUCUGGAACAAGGAUACCAGUAAACCAACAUACCCUUGGCAGCCUAAAACAUGAGGAUCACCCAUGUAAU [theeternabot_exclusion_MS2_Theo_A_26] has apparent KD of MS2 coat protein at or above 30 nM? label 0

Dear colleague, could you confirm whether AUUAUCAUGGUCAUUUAUAUUUCGUCAGAUACCAGACUAGAUAUAGUCCCUUGGCAGCUGUUACAUGAGGAUCACCCAUGUUAUU [JR_ExcTheophyA_Sub018] has apparent KD of MS2 coat protein at or above 30 nM? label 1

Dear colleague, could you confirm whether UGGACGCAACGAGCACGAGGUCGGCAGCUACGAGGACCGGUACGGCCGCCACUCGAGUUACGACAUGAGGAUCACCCAUGUAAGG [theeternabot_exclusion_MS2_Trp_A_45] has apparent KD of MS2 coat protein at or above 30 nM? label 0

Dear colleague, could you confirm whether AUGUCGUUGAAUAUAGCGGCUUGGUGUGAUACCAGAAUGAUCUAAUUCCCUUGGCAGCAUUACAUGAGGAUCACCCAUGUUCCAG [SSTheo A #21] has apparent KD of MS2 coat protein at or above 30 nM? label 0

Dear colleague, could you confirm whether AAUAAACAUGAGGAUCACCCAUGUAGGGUGCGAGGACCGGUACGGCCGCCACUCGGGUGAAAACAUGAGGAUCACCCAUGUUAAA [Cloverleaf #DoubleMS2 #GUTurnoff] has apparent KD of MS2 coat protein at or above 30 nM? label 1

---

system: K4 kissing-loop RNA reporter; test: apparent KD of K4 kissing-loop reporter; higher = weaker reporter binding; details: Eterna round: R107; input ligand: arginine 13.2 mM
READOUT KIND: apparent KD of K4 kissing-loop reporter (nM)
Note: unit nM is implicit; provide only the numeric part.

Entry UGGAGUUGACGAAAAGUCAACUCCAGAGAAGGAGCGGACGAAAGUCCAGGUAGGUCGCUCACUACCAGUGAUGUUGGUACUUAAA ; apparent KD of K4 kissing-loop reporter = 243

Entry CACUUACGUAGUGAUGUUACGAUCUCUGAUACCAGACAACUCUAAGUCCCUUGGCAGCAGUCAUUUUGCUUAUUAUUUACUCAAA [JR_ExcTheophyA_Sub017] ; apparent KD of K4 kissing-loop reporter = 597

Entry CAUACGCAUGGAGGAUAUGAGAUUACUCAUGUCAUUUAAUAUUCUCAGUGAUGUUGAGAUUUUGGCUCAGAAGGCCAUGUGUAUG [Ex FMN B 18] ; apparent KD of K4 kissing-loop reporter = 496

---

system: K4 kissing-loop RNA reporter; test: apparent KD of K4 kissing-loop reporter; higher = weaker reporter binding; details: Eterna round: R107; input ligand: tryptophan 2.4 mM;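 further: bound reporter read as fluorescence of individual clusters on recovered sequencing chips by microscopy, with normalized cluster intensities fitted with a binding model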
READOUT KIND: apparent KD of K4 kissing-loop reporter (nM)
Note: unit nM is implicit; provide only the numeric part.

Please review the following examples before continuing.
| QUERY SEQUENCE | READOUT KIND | READOUT VALUE |
| --- | --- | --- |
| GACAUAUUCCAGGAUACCAGUGAUCCGCCGCAGCCGAAGACUAGUGAUGUUAGUUUCUGUCACCCUUGGCAGCCUCGAGUCUAAU [theeternabot_sameState_KL_Theo_B_15] | apparent KD of K4 kissing-loop reporter | 434 |
| AUUAAUAUCACGGCCGCCACUGAAUAUUGUUUUUAUAUUUAGAAUAAUUGCCAGUGAUGUUGGAUCAGGACCGGGUGAGUUUAUA [JR_SSTryptoB_Sub007] | apparent KD of K4 kissing-loop reporter | 421 |

Entry AGCUGUAGCAGAAGGAGCGACAGUUAUUCUGAUAGUACUCUGAGUGAUGUUCAGAACGACUGUCAGGUAGGUCGCUGUUACAGCU [Arg B Ex t8b] ; apparent KD of K4 kissing-loop reporter = 162

Entry CAUUGUACACGGUGCGAAGACCCAAUGGAUACCAGCAAUACAUUAUGCCCUUGGCAGCCAAGAGUGAUGUUCGACGGACUAGAUU [theeternabot_sameState_KL_Theo_A_4] ; apparent KD of K4 kissing-loop reporter = 233

Entry GUACGCUGCUGAGUGAUGUUCAGCAAUCGCUAGGAUAUCGCUUUUGCGAGAAGGAGCGCAAUGAGGAAACUCGUUGUUAGUGUAC [FMN A 28] ; apparent KD of K4 kissing-loop reporter = 207

---

Catalogue of sequences with associated apparent KD of MS2 coat protein
tested on: MS2 coat protein; assay: apparent KD of MS2 coat protein; higher = weaker reporter binding; settings: Eterna round: R107; input ligand: arginine 13.2 mM
Note: unit nM is implicit; provide only the numeric part.

Please review the following examples before continuing.
| QUERY SEQUENCE | ASSAYED SYSTEM | READOUT KIND | READING UNIT | READOUT VALUE |
| --- | --- | --- | --- | --- |
| UCGCCCAGGAUGGAAUCCUGGGAUAUGGAAGGAGCGCUGAUGCCAGCAGGUAGGUCGCCAACGGACAUGAGGAUCACCCAUGUAC [Same State - Arginine A (Freestyle 9)] | MS2 coat protein | apparent KD of MS2 coat protein | nM | 17.7 |
| GCUAGUGGCAGAAGGAGCGACAUUUAUAGUGGUCGAUACAUGAGGAUCACCCAUGUACUAUGUCAGGUAGGUCGCUGCCACUAGC [EAB NP+V+V2 #5] | MS2 coat protein | apparent KD of MS2 coat protein | nM | 31.6 |
| AGCAACAAGUCGGCCGCCACUCUUUUAACAUGAGGAUCACCCAUGUUUAUAUCAUGGUUUUAAUAGAGGACCGGGACAGUUGCAU [JR_ExcTryptoB_Sub005] | MS2 coat protein | apparent KD of MS2 coat protein | nM | 26.3 |
| CUAUAUUAUAGAAGGAGCGUCGAAAAUGGGUAAACAUGAGGAUCACCCAUGUAAAGGGAACGACAGGUAGGUCGCUAUAAUAUAG [AstromonsSSArgB#13] | MS2 coat protein | apparent KD of MS2 coat protein | nM | 117 |
| UAAAACAUGAGGAUCACCCAUGUAAAAGAUACCAGAGUGAUGAUCCUCCCUUGGCAGCUUAACGCUGAUUGAUUACAAUCAGCGA [Mat - Same State Theophlline A - Mod of Eli - D21] | MS2 coat protein | apparent KD of MS2 coat protein | nM | 75.4 |

Value sought: apparent KD of MS2 coat protein, system MS2 coat protein, item AAAAUCCUACCUGAGGAUCACCCAGGUGAAGGAGCGCCCGAAAGGGCAGGUAGGUCGCACCUGAGGAUCACCCUGGUAAACCUAA [ArgEX 22 #DoubleMS2 #OpenEnded] . Result: 30.9

Value sought: apparent KD of MS2 coat protein, system MS2 coat protein, item ACAUGAGGAUCACCCAUGUCAGGGCACGAUACCAGCUGAUCCGGUGGCCCUUGGCAGCGUGACGAGUGGUCAUGAGGAUCACACG [?fmullin] . Result: 75.8

Value sought: apparent KD of MS2 coat protein, system MS2 coat protein, item AAUAAUAAGGCGGCCGCCACUACACAUGAGGAUCACCCAUGUCUCGCGGGCUUGCGUUGGGAUUGUAGGACCGGGCCAAUAAUAA [Exclusion - Tryptophan B (Freestyle 11)] . Result: 15.2

Value sought: apparent KD of MS2 coat protein, system MS2 coat protein, item UGUAUGGACUGAAGGAGCGGGAAAAUAACUUGAGGAUCACCCAGGUAAAAGGCGAAAGCCACCCAGGUAGGUCGCAGUCCAUACU . Result: 21.5

Value sought: apparent KD of MS2 coat protein, system MS2 coat protein, item AGUCACUCGAGGUGAUCUGACGAGUGGCAACGAGGACCGGUACGGCCGCCACUCGAAUAAACAUGAGGAUCACCCAUGUACAAAU [T''-M'-T'-T-MS2 - Design 11] . Result: 54

Value sought: apparent KD of MS2 coat protein, system MS2 coat protein, item AGCGCAGGUCCUGAUACCAGAGACAUGAGGAUCACCCAUGUCCGAUGGUCCUGCCUCAGGCUCCCUUGGCAGCAGGGCUUGUGCU [Exclusion Theophylline B GF10] . Result: 10.6

Value sought: apparent KD of MS2 coat protein, system MS2 coat protein, item AAUAACAAGAGGAUCACCCUUGUAAAAGAUACCAGAGUGAUGAUCCUCCCUUGGCAGCUUAACGCUGAUUGAUUACAAUCAGCGA . Result: 27
